- Tested on: M18 aspartyl aminopeptidase (Plasmodium falciparum 3D7)
- protocol_notes: inhibition of P. falciparum M18 aminopeptidase – biochemical, QFRET, recombinant enzyme, primary screen (AID 1822);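 further: 0% = plate median of test compound wells and 100% = 2 mM ZnCl2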
- reported_conditions: recombinant PfM18AAP, H-Glu-NHMec fluorogenic cleavage; at 7.35 µM; active compounds read high
In all, about 290,000 compounds went through this assay and about 3,500 (1.2%) were called active. The sample holds actives, similar compounds and a random draw of the others, so the mix is not that of the screen.
Assign 1.0 whenever inhibition does not fall below 20%; assign 0.0 whenever it does.

Before answering, review these 3 worked examples.
CCOC(=O)/C(C#N)=C/c1ccc(N2CCCCC2)cc1	0.0
Oc1c(C(c2cccs2)N2CCN(c3ccc(F)cc3)CC2)sc2ncnn12 (stereo unspecified)	0.0
Oc1c(C(c2ccco2)N2CCC3(CC2)OCCO3)sc2ncnn12 (stereo unspecified)	1.0

[Q] Is inhibition for "O=C(Cc1ccccc1)NC(=S)Nc1ccc(N2CCCCC2)cc1" at or above 20%?
[A] 0.0

[Q] Cool, now "O=C1C=CC(=O)N1c1ccc(N2CCCCC2)cc1"
[A] 1.0

[Q] Cool, now "O=C(Nc1ccncc1)c1ccc([N+](=O)[O-])cc1Cl"
[A] 0.0

* * *

Consider the following compounds; for each one, report its inhibition.
- Tested on: M18 aspartyl aminopeptidase (Plasmodium falciparum 3D7)
- protocol_notes: inhibition of P. falciparum M18 aminopeptidase – biochemical, QFRET, recombinant enzyme, primary screen (AID 1822);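 further: 0% = plate median of test compound wells and 100% = 2 mM ZnCl2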
- reported_conditions: recombinant PfM18AAP, H-Glu-NHMec fluorogenic cleavage; at 7.35 µM; active compounds read high
Hit rate of the full screen: of about 290,000 compounds, about 3,500 (1.2%) were called active. The sample as a whole holds a higher share of actives than the screen did.

# count of solved cases: 3
COc1cccc(/C=N/Nc2ccc(Cl)nn2)c1	18.6% (inactive)
Cc1nnc(N/N=C/c2cccs2)[nH]c1=O	0.78% (inactive)
COc1cc(C2C(C(=O)c3ccco3)=C(O)C(=O)N2c2cc(C)on2)ccc1OCc1ccccc1 (centres undefined)	1.75% (inactive)

I would be grateful if you could provide inhibition for each of the following entries.
1. Cc1nc2nc(COc3ccccc3)[nH]n2c(=O)c1Cc1ccccc1
2. Cc1ccsc1/C=N/NC(=O)Cc1cc(=O)[nH][nH]1
3. COc1cc(C)c(C)cc1S(=O)(=O)N1CCCc2ccccc21
4. O=C(NCc1cccnc1)C12CC3CC(CC(C3)C1)C2
5. COc1cccc(COc2ccc(N(C)S(=O)(=O)c3ccccc3)cc2)c1
6. COc1ccc(Cl)cc1S(=O)(=O)N1CCN(CC(=O)C(C)(C)C)CC1

[A]
1. 5.29% (inactive)
2. 1.38% (inactive)
3. -5.85% (inactive)
4. -7.72% (inactive)
5. 4.14% (inactive)
6. -1.35% (inactive)

I would be grateful if you could provide inhibition for each of the following entries.
1. Cc1ccc(-n2c(C)cc(/C=N/Nc3ccc([N+](=O)[O-])cn3)c2C)c(C)c1
2. Clc1ccc(N/N=C/c2cccs2)nn1
3. CN(Cc1ccccc1)C(=O)CSc1nc2ccccc2[nH]1
4. COc1ccc2c(c1)C(C)=CC(C)(C)N2C(=O)CNCc1ccc2c(c1)OCO2
5. O=C(Nc1ccc2sc3ccccc3c(=O)c2c1)c1ccccc1Cl
6. CC(=O)c1ccc(NC(=O)Nc2ccc([N+](=O)[O-])cc2C)cc1
7. COc1ccc(NS(=O)(=O)c2cc(C(=O)Nc3ccccc3C(=O)O)ccc2C)cc1

[A]
1. 7.66% (inactive)
2. 31.6% (active)
3. 7.79% (inactive)
4. 12.3% (inactive)
5. 3.74% (inactive)
6. -10.5% (inactive)
7. 1.9% (inactive)

I would be grateful if you could provide inhibition for each of the following entries.
1. COc1ccc2c(c1)C(C)=CC(C)(C)N2C(=O)Nc1ccccc1
2. O=c1c2ccccc2[nH]c(=S)n1CCN1CCC(=C(c2ccc(F)cc2)c2ccc(F)cc2)CC1
3. CSc1ccc(S(=O)(=O)NCc2ccc(Cl)cc2)cc1
4. O=C1c2cccc3c([N+](=O)[O-])ccc(c23)C(=O)N1CC1CCCO1 (centres undefined)
5. CCN(CC)S(=O)(=O)c1cc([N+](=O)[O-])ccc1NNC(=O)Nc1ccccc1
6. CCOc1ccc(OCC)c(NC(=O)CCS(=O)(=O)c2ccc(C)cc2)c1
7. Cc1ccc(-c2cc(C(=O)NCc3cn(C)nc3C)c3cc(Br)ccc3n2)cc1

[A]
34.2% (active)
-3.53% (inactive)
5.25% (inactive)
4.32% (inactive)
48.1% (active)
-4.08% (inactive)
0.33% (inactive)

* * *

Consider the following compounds; for each one, report its inhibition.
- Test system: M18 aspartyl aminopeptidase (Plasmodium falciparum 3D7)
- protocol_notes: inhibition of P. falciparum M18 aminopeptidase – biochemical, QFRET, recombinant enzyme, primary screen (AID 1822);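 further: 0% = plate median of test compound wells and 100% = 2 mM ZnCl2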
- reported_conditions: recombinant PfM18AAP, H-Glu-NHMec fluorogenic cleavage; at 7.35 µM; active compounds read high
In all, about 290,000 compounds went through this assay and about 3,500 (1.2%) were called active. Shown is part of a subset that was picked to be rich in actives.
Answers are plain numbers, in %.

Cc1ccc(N(C(=O)c2snc(C(N)=O)c2N)C(C(=O)NCC2CCCO2)c2c[nH]c3ccccc23)cc1 (stereo unspecified)	2.71
CCCCNC(=O)C1CCC(=O)N1CCc1ccccc1 (stereo unspecified)	-7.08
COc1ccc(OCc2nnc3n2N=C(c2ccccc2)C(CC(=O)O)S3)cc1 (stereo unspecified)	33.1
C/C(=C\C(=O)c1cccnc1)Nc1ccc(C)c(C)c1	1.47
O=C(O)C1CCC(CNS(=O)(=O)c2ccc(Br)cc2)CC1 (stereo unspecified)	-15.2

I would be grateful if you could provide inhibition for each of the following entries.
1. COc1cc(NC(=S)N2CCCC(C)C2)cc(OC)c1OC (stereo unspecified)
2. COc1ccc(-c2onc3ccc(C(C)=O)cc23)cc1
3. CC(OC(=O)c1ccc2noc(-c3ccccc3)c2c1)C(N)=O (stereo unspecified)
4. COc1ccc(C(=O)CSc2nnc(COc3ccccc3)n2Cc2ccco2)cc1
5. C/C(=C\C(=O)c1ccccc1)Nc1cccc(O)c1

[A]
16.2
13.4
31.9
-6.68
31

[Q] So what's the measured inhibition for this one? COc1cccc(OCc2nnc3n2N=C(c2ccccc2)C(CC(=O)O)S3)c1 (stereo unspecified)
[A] 3.81

* * *

- System: M18 aspartyl aminopeptidase (Plasmodium falciparum 3D7)
- protocol_notes: inhibition of P. falciparum M18 aminopeptidase – biochemical, QFRET, recombinant enzyme, primary screen (AID 1822);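 further: 0% = plate median of test compound wells and 100% = 2 mM ZnCl2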
- reported_conditions: recombinant PfM18AAP, H-Glu-NHMec fluorogenic cleavage; at 7.35 µM; active compounds read high
The whole screen tested about 290,000 compounds, of which about 3,500 (1.2%) were called active. Many of the other results were omitted from the sample, so actives are more common in it than they were.
Consider the following compounds; for each one, report its inhibition.
Give bare numbers, in %.

# count of solved cases: 5
CC(C)c1ccc(NC(=O)[C@@H](NC(=O)N2CC(=O)Nc3ccccc32)C(C)C)cc1	-1.48
COc1ccccc1/C=N\Nc1cc(C)nc(-n2nc(C)cc2C)n1	4.17
CSc1ccc(CNC(=O)c2ccc(NC(=O)C3=CSCCO3)cc2)cc1	6.37
Oc1ccc(-n2nnnc2SCc2c(F)cccc2Cl)cc1	9.59
COc1cccc(/C=N/Nc2ncc(C(F)(F)F)cc2Cl)c1O	12.8

Query compound follows.
[Q] So what's the measured inhibition for this one? "O=C(O)c1ccccc1-c1ccccc1C(=O)Nc1ccccc1Br"
[A] -9.93

* * *

- System: M18 aspartyl aminopeptidase (Plasmodium falciparum 3D7)
- protocol_notes: inhibition of P. falciparum M18 aminopeptidase – biochemical, QFRET, recombinant enzyme, primary screen (AID 1822);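 further: 0% = plate median of test compound wells and 100% = 2 mM ZnCl2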
- reported_conditions: recombinant PfM18AAP, H-Glu-NHMec fluorogenic cleavage; at 7.35 µM; active compounds read high
The campaign covered roughly 290,000 compounds. About 3,500 (1.2%) were called active. The sample as a whole holds a higher share of actives than the screen did.
readout_name: inhibition (%)
Numbers only, in %.

# count of solved cases: 3
C=CCn1c(Cn2nnc3ccccc32)nnc1SCC(=O)N/N=C/c1cc(Br)cc(OC)c1O	28.3
COc1cccc2cc(C(=O)NCc3ccc(C)cc3)c(=N)oc12	3.31
O=C(CN1CCOC1=O)N1CCCC(Nc2ccc(F)c(F)c2)C1 (stereo not given)	-0.1

I would be grateful if you could provide inhibition for each of the following entries.
1. CC(=O)N(c1ccc2oc(=O)sc2c1)S(=O)(=O)c1ccc(C)cc1
2. COc1cccc(NC(=O)N2CCC(NC(=O)C(Cc3cccc(C)c3)NC(C)=O)CC2)c1 (stereo not given)

[A]
32.7
-1.52

* * *

- Tested on: M18 aspartyl aminopeptidase (Plasmodium falciparum 3D7)
- protocol_notes: inhibition of P. falciparum M18 aminopeptidase – biochemical, QFRET, recombinant enzyme, primary screen (AID 1822);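 further: 0% = plate median of test compound wells and 100% = 2 mM ZnCl2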
- reported_conditions: recombinant PfM18AAP, H-Glu-NHMec fluorogenic cleavage; at 7.35 µM
Hit rate of the full screen: of about 290,000 compounds, about 3,500 (1.2%) were called active.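 How the source made its calls: active means inhibition above the campaign mean inhibition over all tested compounds plus 3 SD (cut at about 28% in these data); inactive means the rest.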 For the sample, actives were picked, then their nearest neighbours and some compounds at random.
Reply using exactly one outcome from active, inactive

Before answering, review these 5 worked examples.
COc1ccc(C(C(=O)NC(C)(C)C)N(Cc2ccc(F)cc2)C(=O)CCC(=O)Nc2cc(C)on2)cc1 (stereo not given)	inactive
O=C1C2C3C=CC(C4CC34)C2C(=O)N1/N=C/c1ccc(-c2ccccc2[N+](=O)[O-])o1 (stereo not given)	inactive
COc1cc(SC)ccc1C(=O)N(Cc1ccccc1)c1ccccc1	inactive
Clc1cc(-c2ccc(/C=N/n3cnnc3)o2)ccc1Br	inactive
CC(=O)Nc1ccc(S(=O)(=O)Oc2ccc(Br)cc2C(=S)N2CCOCC2)cc1	inactive

[Q] For this molecule, state the assay outcome: Cc1ccc(S(=O)(=O)N2CCCC(C(=O)N3CCN(C)CC3)C2)cc1 (stereo not given)
[A] inactive
